measured-on: CYP11A (Homo sapiens)
Construct: A 1.45-kb CYP11A1 gene fragment amplified as a result of the above-described reaction; expressed in transfected cells; host or cells: Escherichia coli BL21(DE3), plasmid pCYP11A-ARX (strain BL21CYP11)
experimental-details: Conversion reaction of substrates by CYP11A-expressing Escherichia coli
Type: cell-based
measurement-setup: same reaction as Example 6 (28° C., 5 hours)
Note to self: values exactly at 4% are 1. So Conversion rate at or above 4% is 1, below is -1.

INSERT INTO assay_data (compound, group_label) VALUES
  ('CC(C)CC[C@@H](O)[C@@H](C)[C@H]1CC[C@H]2[C@@H]3CC=C4C[C@@H](O)CC[C@]4(C)[C@H]3CC[C@]12C [(22R)-22-hydroxy-cholesterol]', 1),
  ('CC[C@H](/C=C/[C@@H](C)[C@H]1CC[C@H]2[C@@H]3CC=C4C[C@@H](O)CC[C@]4(C)[C@H]3CC[C@]12C)C(C)C', -1),
  ('CC(C)=CCC[C@@H](C)[C@H]1CC[C@H]2[C@@H]3CC=C4C[C@@H](O)CC[C@]4(C)[C@H]3CC[C@]12C', -1),
  ('CC(C)CCC[C@@H](C)[C@H]1CC[C@H]2C3=CC=C4C[C@@H](O)CC[C@]4(C)[C@H]3CC[C@]12C [7-dehydrocholesterol]', -1),
  ('CC(C)CCC[C@@H](C)[C@H]1CC[C@H]2[C@@H]3CC=C4C[C@@H](O)CC[C@]4(C)[C@H]3CC[C@]12C', -1),
  ('CC(C)CC[C@@H](O)[C@](C)(O)[C@H]1CC[C@H]2[C@@H]3CCC4=CC(=O)CC[C@]4(C)[C@H]3CC[C@]12C', 1);

###

measured-on: CYP11A (Homo sapiens, UniProt P05108)
Construct: A 1.45-kb CYP11A1 gene fragment amplified as a result of the above-described reaction; expressed in transfected cells; host or cells: Escherichia coli BL21(DE3), plasmid pCYP11A-ARX (strain BL21CYP11)
Sequence (P05108 40-521): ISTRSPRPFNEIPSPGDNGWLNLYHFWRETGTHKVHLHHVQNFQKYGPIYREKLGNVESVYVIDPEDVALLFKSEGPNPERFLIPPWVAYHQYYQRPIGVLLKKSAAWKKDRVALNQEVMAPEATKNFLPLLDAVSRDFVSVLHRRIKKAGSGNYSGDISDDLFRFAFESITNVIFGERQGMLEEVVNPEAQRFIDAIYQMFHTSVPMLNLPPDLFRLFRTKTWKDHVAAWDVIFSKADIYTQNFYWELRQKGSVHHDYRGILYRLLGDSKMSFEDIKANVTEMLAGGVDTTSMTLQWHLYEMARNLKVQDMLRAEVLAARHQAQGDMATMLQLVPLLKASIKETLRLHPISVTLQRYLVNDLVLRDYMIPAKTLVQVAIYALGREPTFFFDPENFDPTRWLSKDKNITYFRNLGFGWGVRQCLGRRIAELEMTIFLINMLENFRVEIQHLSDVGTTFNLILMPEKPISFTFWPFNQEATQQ
experimental-details: Conversion reaction of substrates by CYP11A-expressing Escherichia coli
Format: cell-based
measurement-setup: same reaction as Example 6
Method: The Escherichia coli expression strain BP215 was inoculated into 2 ml of an M9 mix medium (Na2HPO4: 0.68%, KH2PO4: 0.3%, NaCl: 0.05%, NH4C;: 0.01%, Casamino acid: 1%, D-Glucose: 0.4%, CaCl2: 0.1 mM, MgCl2: 1 mM, Thiamine: 0.002%, FeSO4: 0.1 mM, Carbenicillin: 0.005%), and it was then subjected to shaking culture at 30° C. for 17 hours, so as to obtain pre-culture solution. […] The obtained mixture was centrifuged, and the upper layer was then analyzed by HPLC. […]
Known added substrate remained of a selection of compounds
measured-property: added substrate remained (%)

INSERT INTO measurements (compound, measured_on, measured_property, measurement_unit, result) VALUES
  ('CC(C)CCC[C@](C)(O)[C@H]1CC[C@H]2[C@@H]3CCC4=CC(=O)CC[C@]4(C)[C@H]3CC[C@@]21C [(20S)-20-hydroxycholest-4-en-3-one]', 'CYP11A (Homo sapiens, UniProt P05108)', 'added substrate remained', '%', 100),
  ('CC(C)[C@H](C)CC[C@@H](C)[C@H]1CC[C@H]2[C@@H]3CC=C4C[C@@H](O)CC[C@]4(C)[C@H]3CC[C@]12C [campesterol]', 'CYP11A (Homo sapiens, UniProt P05108)', 'added substrate remained', '%', 99.1),
  ('CC(C)CC[C@@H](O)[C@@H](C)[C@H]1CC[C@H]2[C@@H]3CCC4=CC(=O)CC[C@]4(C)[C@H]3CC[C@]12C [(22R)-22-hydroxycholest-4-en-3-one]', 'CYP11A (Homo sapiens, UniProt P05108)', 'added substrate remained', '%', 99.7);

###

Known Conversion rate of a selection of compounds
Test system: CYPSS204A
experimental-details: Conversion reaction of substrates by Escherichia coli expression strain BP215
Format: cell-based, Sphingomonas subterranea NBRC 16086
measurement-setup: strain BP215, 28° C., 5 hours; to progesterone, pregnenolone or 7-dehydropregnenolone
measured-property: Conversion rate (%)

INSERT INTO results (compound, measured_on, measurement_unit, result) VALUES
  ('CC(C)CC[C@@H](O)[C@](C)(O)[C@H]1CC[C@H]2[C@@H]3CC=C4C[C@@H](O)CC[C@]4(C)[C@H]3CC[C@]12C [(20R,22R)-20,22-dihydroxy-cholesterol]', 'CYPSS204A', '%', 53.0),
  ('CC(C)=CCC[C@@H](C)[C@H]1CC[C@@]2(C)C3=C(CC[C@]12C)[C@@]1(C)CC[C@H](O)C(C)(C)[C@@H]1CC3', 'CYPSS204A', '%', 0),
  ('CC(C)=CCC[C@@H](C)[C@H]1CC[C@H]2[C@@H]3CC=C4C[C@@H](O)CC[C@]4(C)[C@H]3CC[C@]12C', 'CYPSS204A', '%', 71.7),
  ('CC(C)CCC[C@@H](C)[C@H]1CC[C@H]2[C@@H]3CCC4=CC(=O)CC[C@]4(C)[C@H]3CC[C@]12C', 'CYPSS204A', '%', 78),
  ('CC(C)[C@H](C)CC[C@@H](C)[C@H]1CC[C@H]2[C@@H]3CC=C4C[C@@H](O)CC[C@]4(C)[C@H]3CC[C@]12C', 'CYPSS204A', '%', 27.9),
  ('CC(C)CC[C@H](O)[C@](C)(O)[C@H]1CC[C@H]2[C@@H]3CCC4=CC(=O)CC[C@]4(C)[C@H]3CC[C@]12C', 'CYPSS204A', '%', 69.8);
